B1: SERPINB5 (parent)
chain: FPESETKECPFRVNKVCGAACSSK

# Variants of: B1
# ASSAY OVERVIEW: protein stability index of a GFP-peptide fusion (GPS, HEK-293T) (PSI 1-6); higher = more stable;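 further: lentivirally expressed fusions sorted by FACS into six bins by GFP to DsRed ratio, PSI derived from sequencing read proportions per bin multiplied by bin number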
# CONDITION NOTES: c terminus: a fixed tail appended
Label rule, in plain words: protein stability index of 2 and up is rule met, under 2 is rule not met.

Exam item: decide whether the reported protein stability index for `P10D` is at least 2.
rule met

Exam item: decide whether the reported protein stability index for `C17F` is at least 2.
rule met

Exam item: decide whether the reported protein stability index for `K15D` is at least 2.
rule met

Exam item: decide whether the reported protein stability index for `S23V` is at least 2.
rule met

Exam item: decide whether the reported protein stability index for `C17Y` is at least 2.
rule met

Exam item: decide whether the reported protein stability index for `S23G` is at least 2.
rule met

Exam item: decide whether the reported protein stability index for `F1S` is at least 2.
rule met

Exam item: decide whether the reported protein stability index for `E5F` is at least 2.
rule not met

Exam item: decide whether the reported protein stability index for `P2F` is at least 2.
rule met

Exam item: decide whether the reported protein stability index for `C21M` is at least 2.
rule met

Exam item: decide whether the reported protein stability index for `S4I` is at least 2.
rule met

Exam item: decide whether the reported protein stability index for `E8M` is at least 2.
rule not met

Exam item: decide whether the reported protein stability index for `G18C` is at least 2.
rule met

Exam item: decide whether the reported protein stability index for `E3I` is at least 2.
rule not met

Exam item: decide whether the reported protein stability index for `K24T` is at least 2.
rule met

Exam item: decide whether the reported protein stability index for `V16G` is at least 2.
rule met

Exam item: decide whether the reported protein stability index for `F11W` is at least 2.
rule met

Exam item: decide whether the reported protein stability index for `C21F` is at least 2.
rule not met

Exam item: decide whether the reported protein stability index for `C21V` is at least 2.
rule met

Exam item: decide whether the reported protein stability index for `K7N` is at least 2.
rule met
